Target: TLR7 (Homo sapiens)
Construct: human HEK-Blue cells co-expressing a TLR7 or TLR8 gene
Sequence (Q9NYK1 27-1049): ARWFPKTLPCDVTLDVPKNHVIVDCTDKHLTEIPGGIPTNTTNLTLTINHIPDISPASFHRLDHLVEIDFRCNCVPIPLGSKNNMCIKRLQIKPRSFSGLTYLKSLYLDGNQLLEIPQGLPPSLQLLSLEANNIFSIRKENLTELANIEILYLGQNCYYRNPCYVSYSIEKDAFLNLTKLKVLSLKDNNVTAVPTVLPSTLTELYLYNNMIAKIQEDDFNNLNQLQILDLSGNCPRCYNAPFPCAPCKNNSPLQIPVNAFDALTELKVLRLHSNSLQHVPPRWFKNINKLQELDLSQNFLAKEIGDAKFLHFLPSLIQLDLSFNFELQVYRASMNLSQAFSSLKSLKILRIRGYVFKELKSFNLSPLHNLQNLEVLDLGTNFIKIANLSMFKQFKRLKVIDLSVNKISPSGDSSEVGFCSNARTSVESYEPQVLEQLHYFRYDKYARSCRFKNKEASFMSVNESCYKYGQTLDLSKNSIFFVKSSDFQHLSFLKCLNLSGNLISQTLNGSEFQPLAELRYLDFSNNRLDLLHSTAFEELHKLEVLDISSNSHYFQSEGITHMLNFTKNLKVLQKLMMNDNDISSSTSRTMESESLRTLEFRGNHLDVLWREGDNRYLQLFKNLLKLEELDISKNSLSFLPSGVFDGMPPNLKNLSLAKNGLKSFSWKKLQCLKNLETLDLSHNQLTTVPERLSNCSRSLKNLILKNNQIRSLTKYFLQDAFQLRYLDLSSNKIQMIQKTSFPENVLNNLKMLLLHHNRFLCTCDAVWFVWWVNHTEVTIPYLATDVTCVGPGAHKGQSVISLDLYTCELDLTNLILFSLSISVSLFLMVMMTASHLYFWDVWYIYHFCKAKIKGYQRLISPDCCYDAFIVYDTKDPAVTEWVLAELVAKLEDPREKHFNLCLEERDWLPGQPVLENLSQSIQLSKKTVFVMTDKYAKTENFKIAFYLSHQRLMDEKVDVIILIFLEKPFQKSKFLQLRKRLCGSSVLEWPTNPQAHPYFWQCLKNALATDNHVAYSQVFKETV
Test: In vitro human TLR7 binding reporter assay (HEK-Blue, NF-kB/AP1-inducible SEAP)
Type: cell-based
Settings: activity range, read-out: TLR7 Agonist EC50
Result type: EC50

Would you please look over these solved cases?
compound="CC(C(=O)NCCCO)n1cc2c(N)nc3cc(-c4ccn[nH]4)ccc3c2n1 (centres unmarked)" observed="> 100 µM"
compound="CC(C(=O)NCc1cccnc1)n1cc2c(N)nc3cc(-c4ccn[nH]4)ccc3c2n1 (centres unmarked)" observed="> 100 µM"
compound="Nc1nc2cc(-c3cc[nH]n3)ccc2c2cn(CC(=O)N[C@@H]3CCOC3)nc12 [Example 533]" observed="> 100 µM"
compound=Nc1nc2cc(-c3cc[nH]n3)ccc2c2[nH]c(CN3C[C@@H]4C[C@H]3CO4)cc12 observed="> 100 µM"
compound="COC1CCN(C(=O)C(C)n2cc3c(N)nc4cc(-c5ccn[nH]5)ccc4c3n2)CC1 (centres unmarked)" observed="> 100 µM"
compound=CNC(=O)CCn1cc2c(N)nc3cc(-n4cccn4)ccc3c2n1 observed="> 100 µM"

// query EC50 value for entry Nc1nc2cc(-c3cc[nH]n3)ccc2c2nn(CCC(=O)N3CC(O)C3)cc12 > 100 µM

Then this compound: CC(C)(Cn1cc2c(N)nc3cc(-c4ccn[nH]4)ccc3c2n1)C(=O)N1CCOCC1 > 100 µM

Let us now turn to C[C@H](O)Cn1cc2c(N)nc3cc(-c4cc[nH]n4)c(F)cc3c2n1 > 100 µM

Next compound: CC(C)(O)CCn1cc2c(n1)c(N)nc1cc(-c3ccn[nH]3)ccc12 > 100 µM

Note, next up: CC(C)NC(=O)C(C)Cn1cc2c(N)nc3cc(-c4cc[nH]n4)ccc3c2n1 (centres unmarked) > 100 µM

Also, CCn1c(CN(C)C)cc2c(N)nc3cc(-c4ccn[nH]4)ccc3c21 please. > 100 µM
